experimentalTarget: GST-Bc1-2 (Homo sapiens)
Sequence (P10415 whole entry): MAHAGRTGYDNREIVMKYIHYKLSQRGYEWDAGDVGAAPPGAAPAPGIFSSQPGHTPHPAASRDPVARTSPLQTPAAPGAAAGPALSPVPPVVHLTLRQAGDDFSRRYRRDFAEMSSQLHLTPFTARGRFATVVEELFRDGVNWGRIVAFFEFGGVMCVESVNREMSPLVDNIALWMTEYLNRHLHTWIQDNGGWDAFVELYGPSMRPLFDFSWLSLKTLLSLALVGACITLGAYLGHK
testMethodNotes: Time Resolved-Fluorescence Resonance Energy Transfer (TR-FRET) Bcl-2 binding assay with F-Bak peptide probe
measurementConditions: GST-Bcl-2 1 nM, F-Bak probe 100 nM, Tb-anti-GST 1 nM; '<' = below limit of detection; read-out: TR-FRET Bcl-2 Binding Ki
pKi: −log10 of the molar value.
Examples of compounds with documented pKi follow.

Completed entries (count: 2):
>>> result("CC1(C)CCC(CN2CCN(c3ccc(C(=O)NS(=O)(=O)c4ccc(NCCC#N)c([N+](=O)[O-])c4)c(Oc4cnc5[nH]ccc5c4)c3)CC2)=C(c2ccc(Cl)cc2)C1")
"> 11.00"
>>> result("CC1(C)CC(c2ccc(Cl)cc2)=C(CN2CCN(c3ccc(C(=O)NS(=O)(=O)c4cnc(OCC5CCOCC5)c(Cl)c4)c(Oc4cnc5[nH]ccc5c4)c3)CC2)CO1")
"> 11.00"

Note: attention shifts to another entry.
Which measured pKi value corresponds to CC1(C)CCC(CN2CCN(c3ccc(C(=O)NS(=O)(=O)c4ccc(NCC5CCN(C6CC6)CC5)c([N+](=O)[O-])c4)c(Oc4cnc5[nH]ccc5c4)c3)CC2)=C(c2ccc(Cl)cc2)C1 ? > 11.00

These data points were gathered from patent US8580794B2.
